- test_system: Fuc(a1-2)Gal(b1-4)[Fuc(a1-3)]GlcNAc
- measurement_description: glycan array binding signal (z-score within array); higher = stronger binding
- setup_conditions: glycan notation: IUPAC condensed, linker removed
The entries come from a sample that favours the strongest signals as a whole.
recorded_endpoint: glycan array binding signal (z-score)

binder: AAL (Agrocybe aegerita), Q6WY08 (protein) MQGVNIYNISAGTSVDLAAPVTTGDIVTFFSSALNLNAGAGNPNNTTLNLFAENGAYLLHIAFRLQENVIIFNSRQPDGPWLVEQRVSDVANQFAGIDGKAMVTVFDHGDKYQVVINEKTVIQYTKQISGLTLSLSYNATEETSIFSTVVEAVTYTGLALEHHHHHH
measured_value: -0.147
//
binder: AT3G44510(29) (Arabidopsis thaliana), F4J341 (protein) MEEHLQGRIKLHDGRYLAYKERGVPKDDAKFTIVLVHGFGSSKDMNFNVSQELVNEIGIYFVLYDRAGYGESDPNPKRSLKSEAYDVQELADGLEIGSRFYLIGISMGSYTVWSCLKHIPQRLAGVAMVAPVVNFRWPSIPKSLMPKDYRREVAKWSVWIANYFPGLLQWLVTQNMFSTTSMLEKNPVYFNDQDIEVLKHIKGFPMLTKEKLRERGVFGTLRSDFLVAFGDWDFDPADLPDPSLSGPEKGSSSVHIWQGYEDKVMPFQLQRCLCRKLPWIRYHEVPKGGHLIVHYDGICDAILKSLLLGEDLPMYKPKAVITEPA
measured_value: -0.381
//
binder: Gal 3 (Canis lupus) (protein) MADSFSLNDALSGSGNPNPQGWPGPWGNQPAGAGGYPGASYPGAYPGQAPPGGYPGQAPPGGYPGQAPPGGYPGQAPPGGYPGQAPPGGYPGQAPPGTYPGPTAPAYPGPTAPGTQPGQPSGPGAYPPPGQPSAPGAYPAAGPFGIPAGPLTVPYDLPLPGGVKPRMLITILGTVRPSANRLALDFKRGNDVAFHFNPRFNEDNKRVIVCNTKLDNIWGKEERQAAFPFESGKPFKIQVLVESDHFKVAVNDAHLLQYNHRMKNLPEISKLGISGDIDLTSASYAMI
measured_value: -0.259
//
binder: AT5G01260(PC)(40) (Arabidopsis thaliana), Q9LFB0 (protein) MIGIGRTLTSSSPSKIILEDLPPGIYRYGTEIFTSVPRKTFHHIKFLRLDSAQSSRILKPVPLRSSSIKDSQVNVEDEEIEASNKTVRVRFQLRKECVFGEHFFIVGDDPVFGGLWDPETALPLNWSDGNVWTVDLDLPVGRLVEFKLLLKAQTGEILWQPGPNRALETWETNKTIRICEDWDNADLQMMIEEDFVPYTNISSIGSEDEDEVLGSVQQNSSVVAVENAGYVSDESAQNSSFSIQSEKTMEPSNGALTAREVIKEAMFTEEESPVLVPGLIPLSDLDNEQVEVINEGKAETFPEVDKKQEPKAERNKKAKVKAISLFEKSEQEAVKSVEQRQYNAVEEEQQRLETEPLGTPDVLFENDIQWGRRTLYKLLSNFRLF
measured_value: -0.291
//
binder: CLC (Homo sapiens), Q9UBD9 (protein) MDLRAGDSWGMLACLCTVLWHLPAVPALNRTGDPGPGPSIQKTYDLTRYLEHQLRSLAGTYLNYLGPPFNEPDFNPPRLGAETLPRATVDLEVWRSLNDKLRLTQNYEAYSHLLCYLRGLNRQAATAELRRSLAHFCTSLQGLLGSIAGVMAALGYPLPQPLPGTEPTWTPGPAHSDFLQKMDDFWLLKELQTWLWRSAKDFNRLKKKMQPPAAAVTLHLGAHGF
measured_value: -0.557
//
binder: SBD-G4S3-Fc (protein) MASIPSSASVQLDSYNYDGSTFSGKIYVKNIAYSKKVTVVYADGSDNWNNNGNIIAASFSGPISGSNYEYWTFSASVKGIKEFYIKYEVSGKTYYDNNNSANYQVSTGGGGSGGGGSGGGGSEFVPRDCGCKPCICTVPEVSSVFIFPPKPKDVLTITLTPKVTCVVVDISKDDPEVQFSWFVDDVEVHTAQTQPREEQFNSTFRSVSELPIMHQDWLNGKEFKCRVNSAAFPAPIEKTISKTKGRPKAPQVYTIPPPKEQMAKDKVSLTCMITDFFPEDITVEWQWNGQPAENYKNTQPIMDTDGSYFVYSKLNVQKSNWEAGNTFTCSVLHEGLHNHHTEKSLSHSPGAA
measured_value: 0.134
//
binder: PpFlo3 (Pichia pastoris) (protein) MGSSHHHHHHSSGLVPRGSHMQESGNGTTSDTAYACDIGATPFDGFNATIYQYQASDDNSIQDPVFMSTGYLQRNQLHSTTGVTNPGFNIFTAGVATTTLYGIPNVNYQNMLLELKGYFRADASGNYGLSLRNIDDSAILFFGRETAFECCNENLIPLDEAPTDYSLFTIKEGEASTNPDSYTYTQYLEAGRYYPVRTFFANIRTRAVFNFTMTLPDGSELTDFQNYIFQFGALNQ
measured_value: 4.84
//
binder: GALT1 615 (Arabidopsis thaliana), Q8L7F9 (protein) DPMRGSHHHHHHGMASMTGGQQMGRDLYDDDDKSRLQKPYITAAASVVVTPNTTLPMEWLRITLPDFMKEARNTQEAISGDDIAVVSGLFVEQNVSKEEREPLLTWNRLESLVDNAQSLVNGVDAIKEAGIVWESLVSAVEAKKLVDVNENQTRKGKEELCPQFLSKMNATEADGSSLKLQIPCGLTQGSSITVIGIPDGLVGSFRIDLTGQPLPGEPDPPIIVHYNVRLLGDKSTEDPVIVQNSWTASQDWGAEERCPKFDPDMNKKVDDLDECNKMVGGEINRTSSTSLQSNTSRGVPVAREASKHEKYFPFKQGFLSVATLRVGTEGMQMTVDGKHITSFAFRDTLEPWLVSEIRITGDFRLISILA
measured_value: 4.77
//
binder: Mermaid2 (Stilbonema majum) (protein) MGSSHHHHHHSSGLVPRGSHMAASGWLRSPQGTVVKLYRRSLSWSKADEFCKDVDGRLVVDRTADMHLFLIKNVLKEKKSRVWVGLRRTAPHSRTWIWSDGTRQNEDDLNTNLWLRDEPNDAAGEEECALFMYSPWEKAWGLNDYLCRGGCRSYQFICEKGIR
measured_value: 0.558
